# ASSAYED_TARGET: Kras and SOS1 (biotin-tagged human Kras loaded with GDP, His-tagged human SOS1) (Homo sapiens, UniProt P01116, G12D)
# Construct: made in house; host or cells: E. coli (stated for Kras only)
# Sequence (P01116 1-188 isoform P01116-2 G12D): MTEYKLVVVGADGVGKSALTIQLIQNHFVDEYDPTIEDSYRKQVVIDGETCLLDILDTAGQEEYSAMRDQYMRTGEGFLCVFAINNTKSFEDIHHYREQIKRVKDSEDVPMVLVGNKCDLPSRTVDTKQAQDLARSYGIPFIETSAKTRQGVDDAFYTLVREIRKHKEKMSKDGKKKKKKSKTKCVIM
# ASSAY_EXPLANATION: Protein-protein interaction inhibition between Kras and SOS1 (KrasGl2D-SOS PPI) using AlphaScreen
# Type: binding
# RUN_PARAMETERS: AlphaScreen; biotin-tagged human Kras loaded with GDP, His-tagged human SOS1; read-out: KRAS G12D-SOS PPI IC50
# Experimental: Protein-Protein Interaction Inhibition Between Kras and SOS1 (KrasGl2D-SOS PPI) Using AlphaScreen Protein-protein interaction inhibition (PPI) between Kras and SOS1 was measured by energy transfer from nickel-conjugated donor beads to streptavidin-conjugated acceptor beads using biotin-tagged human Kras expressed in E. coli and loaded with GDP after purification and His-tagged human SOS1 enzyme. […]
Starred links: 1 amine or outer side, 2 acyl side, 3 side chain; linkers in the order of their positions; H or OH if unused. Positions of bridges follow the written chain, without caps; N, C: chain ends. Non-standard residues stand in square brackets, D forms with d. Residues, ends and D or L forms follow the SMILES beside them. hPhe(3-Cl-4-CF3) = N[C@@H](CCc1ccc(C(F)(F)F)c(Cl)c1)C(=O)O; X38 = CN([C@@H](Cc1cccc(OC(F)(F)F)c1)C(=O)[*:2])[*:1]; NMePhe(4-Me) = CN[C@@H](Cc1ccc(C)cc1)C(=O)O; NMePhe(4-I) = CN[C@@H](Cc1ccc(I)cc1)C(=O)O; NMedβ3hAla = C[C@H](CC(=O)[*:2])N(C)[*:1]; NMeChg = CN[C@H](C(=O)O)C1CCCCC1; NMeI = CC[C@H](C)[C@H](NC)C(=O)O; NMeD = CN[C@@H](CC(=O)O)C(=O)O; NMeHpra = C#CCC[C@H](NC)C(=O)O; NMeL = CN[C@@H](CC(C)C)C(=O)O; NMeA = CN[C@@H](C)C(=O)O; Ac5c = NC1(C(=O)O)CCCC1; Aze = O=C(O)[C@@H]1CCN1; Sar = CNCC(=O)O
MEASURED_METRIC: IC50
Units required after the number.

MOLECULE	IC50
C#CCC[C@H]1C(=O)N[C@@H]([C@@H](C)CC)C(=O)N(C)CC(=O)N(C)CC(=O)N(C)[C@@H](Cc2ccc(I)cc2)C(=O)N(C)CC(=O)N[C@@H](CCc2ccc(C(F)(F)F)c(Cl)c2)C(=O)N2CCC[C@H]2C(=O)NC2(CCCC2)C(=O)N(C)[C@@H](C2CCCCC2)C(=O)N(C)[C@H](C)CC(=O)N1C [Compound 110] (cyclo([Ac5c][NMeChg][NMedβ3hAla][NMeHpra]I[Sar][Sar][NMePhe(4-I)][Sar][hPhe(3-Cl-4-CF3)]P))	3.8 nM

Q. Using the record for CC[C@H](C)[C@@H]1NC(=O)[C@H](CC(C)C)N(C)C(=O)C[C@@H](C(=O)N(C)C)N(C)C(=O)[C@H]([C@@H](C)CC)N(C)C(=O)C2(CCCC2)NC(=O)[C@H](Cc2cccc(OC(F)(F)F)c2)N(C)C(=O)[C@H](CCc2ccc(C(F)(F)F)c(Cl)c2)NC(=O)CN(C)C(=O)[C@H](Cc2ccc(C)cc2)N(C)C(=O)[C@@H]2CCN2C(=O)[C@H](C)N(C)C1=O [Compound 1970] ([NMeL]I[NMeA][Aze][NMePhe(4-Me)][Sar][hPhe(3-Cl-4-CF3)][X38][Ac5c][NMeI][NMeD]-NMe2; lactam N-11) , state its measured IC50.
A. 52 nM
